Molecular target: HLA-A*11:01
Assay: IEDB peptide-MHC binding, cellular MHC/competitive/fluorescence; bounds were set here for any values at or beyond the usual limits of such assays
Conditions: source organism: Hepatitis B virus

{"sequenceString": "LVPFVQWFV", "outputUnit": "µM", "qualifierSymbol": "=", "IC50": 69.8}
{"sequenceString": "SLYADSPSV", "outputUnit": "µM", "qualifierSymbol": "≥", "IC50": 70}
{"sequenceString": "FLFILLLCLI", "outputUnit": "µM", "qualifierSymbol": "=", "IC50": 9.73}
{"sequenceString": "HQLDPAFRA", "outputUnit": "µM", "qualifierSymbol": "=", "IC50": 14.7}
{"sequenceString": "WMMWYWGPSL", "outputUnit": "µM", "qualifierSymbol": "≥", "IC50": 70}
{"sequenceString": "KVGAGAFGL", "outputUnit": "µM", "qualifierSymbol": "≥", "IC50": 70}
{"sequenceString": "CLIFLLVLL", "outputUnit": "µM", "qualifierSymbol": "=", "IC50": 35.7}
{"sequenceString": "FLFILLLCL", "outputUnit": "µM", "qualifierSymbol": "=", "IC50": 19}
{"sequenceString": "HLYSHPIIL", "outputUnit": "µM", "qualifierSymbol": "≥", "IC50": 70}
{"sequenceString": "ALMPLYACI", "outputUnit": "µM", "qualifierSymbol": "≥", "IC50": 70}
{"sequenceString": "FIIFLFILLL", "outputUnit": "µM", "qualifierSymbol": "=", "IC50": 7.47}
{"sequenceString": "LLVLLDYQGM", "outputUnit": "µM", "qualifierSymbol": "≥", "IC50": 70}
{"sequenceString": "GLLGWSPQA", "outputUnit": "µM", "qualifierSymbol": "≥", "IC50": 70}
{"sequenceString": "RVRGLYFPA", "outputUnit": "µM", "qualifierSymbol": "≥", "IC50": 70}
{"sequenceString": "SMYPSCCCT", "outputUnit": "µM", "qualifierSymbol": "≥", "IC50": 70}
{"sequenceString": "YQGMLPVCPL", "outputUnit": "µM", "qualifierSymbol": "≥", "IC50": 70}
{"sequenceString": "LLWFHISCL", "outputUnit": "µM", "qualifierSymbol": "=", "IC50": 32.5}
{"sequenceString": "RILTIPQSL", "outputUnit": "µM", "qualifierSymbol": "≥", "IC50": 70}
{"sequenceString": "LLVPFVQWFV", "outputUnit": "µM", "qualifierSymbol": "=", "IC50": 8.09}
{"sequenceString": "ILCWGELMTL", "outputUnit": "µM", "qualifierSymbol": "≥", "IC50": 70}
{"sequenceString": "VLLDYQGML", "outputUnit": "µM", "qualifierSymbol": "=", "IC50": 35.2}
{"sequenceString": "KQYLNLYPV", "outputUnit": "µM", "qualifierSymbol": "=", "IC50": 30.4}
{"sequenceString": "FLCKQYLNL", "outputUnit": "µM", "qualifierSymbol": "≥", "IC50": 70}
{"sequenceString": "FLLAQFTSAI", "outputUnit": "µM", "qualifierSymbol": "≥", "IC50": 70}
{"sequenceString": "ILLLCLIFL", "outputUnit": "µM", "qualifierSymbol": "=", "IC50": 13.8}
{"sequenceString": "CLRRFIIFL", "outputUnit": "µM", "qualifierSymbol": "≥", "IC50": 70}
{"sequenceString": "FIIFLFILL", "outputUnit": "µM", "qualifierSymbol": "=", "IC50": 8.98}
{"sequenceString": "GMLPVCPLI", "outputUnit": "µM", "qualifierSymbol": "≥", "IC50": 70}
